Origin of measurements: patent US8912178B2

Parameter 'readout' = IC50; parameter 'system' = UniProtKB P48736.
Sequence (P48736 whole entry): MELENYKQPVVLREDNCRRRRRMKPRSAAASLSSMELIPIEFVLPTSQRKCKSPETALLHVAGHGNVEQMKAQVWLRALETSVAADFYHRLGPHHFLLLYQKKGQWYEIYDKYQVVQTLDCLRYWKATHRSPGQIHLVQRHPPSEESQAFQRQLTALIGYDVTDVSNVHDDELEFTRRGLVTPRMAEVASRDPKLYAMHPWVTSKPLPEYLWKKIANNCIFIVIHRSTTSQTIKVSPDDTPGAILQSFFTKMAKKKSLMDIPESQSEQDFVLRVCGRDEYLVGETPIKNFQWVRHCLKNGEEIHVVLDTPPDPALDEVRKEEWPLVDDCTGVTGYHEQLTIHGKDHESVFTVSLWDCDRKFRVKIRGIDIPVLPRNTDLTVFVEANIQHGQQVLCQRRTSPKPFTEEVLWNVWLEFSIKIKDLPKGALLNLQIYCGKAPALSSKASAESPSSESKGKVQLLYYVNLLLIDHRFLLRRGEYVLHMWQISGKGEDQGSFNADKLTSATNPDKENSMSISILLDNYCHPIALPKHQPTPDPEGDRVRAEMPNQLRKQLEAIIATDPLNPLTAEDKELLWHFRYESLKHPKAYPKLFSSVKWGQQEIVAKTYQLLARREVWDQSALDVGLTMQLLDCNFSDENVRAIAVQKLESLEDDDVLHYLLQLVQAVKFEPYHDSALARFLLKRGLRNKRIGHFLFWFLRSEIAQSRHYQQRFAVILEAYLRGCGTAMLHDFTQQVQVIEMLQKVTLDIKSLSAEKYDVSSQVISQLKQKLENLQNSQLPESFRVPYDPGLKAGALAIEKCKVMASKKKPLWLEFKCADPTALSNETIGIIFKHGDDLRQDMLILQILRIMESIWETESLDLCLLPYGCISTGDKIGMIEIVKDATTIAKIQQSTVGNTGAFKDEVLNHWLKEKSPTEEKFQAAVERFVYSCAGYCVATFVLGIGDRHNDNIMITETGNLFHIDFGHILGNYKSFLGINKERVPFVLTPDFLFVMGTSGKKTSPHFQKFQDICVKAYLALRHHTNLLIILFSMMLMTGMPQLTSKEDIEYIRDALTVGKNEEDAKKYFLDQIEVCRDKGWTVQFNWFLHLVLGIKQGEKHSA

[
  {
    "compound": "CCNC(=O)Nc1ccc(-c2nc(N3CCOCC3)nc3c2cnn3CC(C)(C)O)cc1 [Example 1]",
    "quantity_kind": "IC50",
    "result": "> 100 nM"
  }
]

Query :: Return IC50 for the following compound: CNC(=O)Nc1ccc(-c2nc(N3CCOCC3)nc3c2cnn3C2CCN(C(=O)OC)CC2)cc1 [Example 6]
Result :: > 100 nM
